Values compiled from patent US11198713B2.

- Tested system: full-length beta-catenin (Axin site) (Homo sapiens)
- Construct: 15 nM full-length beta-catenin, 20 nM FITC labeled peptide in buffer
- Sequence (P35222 whole entry): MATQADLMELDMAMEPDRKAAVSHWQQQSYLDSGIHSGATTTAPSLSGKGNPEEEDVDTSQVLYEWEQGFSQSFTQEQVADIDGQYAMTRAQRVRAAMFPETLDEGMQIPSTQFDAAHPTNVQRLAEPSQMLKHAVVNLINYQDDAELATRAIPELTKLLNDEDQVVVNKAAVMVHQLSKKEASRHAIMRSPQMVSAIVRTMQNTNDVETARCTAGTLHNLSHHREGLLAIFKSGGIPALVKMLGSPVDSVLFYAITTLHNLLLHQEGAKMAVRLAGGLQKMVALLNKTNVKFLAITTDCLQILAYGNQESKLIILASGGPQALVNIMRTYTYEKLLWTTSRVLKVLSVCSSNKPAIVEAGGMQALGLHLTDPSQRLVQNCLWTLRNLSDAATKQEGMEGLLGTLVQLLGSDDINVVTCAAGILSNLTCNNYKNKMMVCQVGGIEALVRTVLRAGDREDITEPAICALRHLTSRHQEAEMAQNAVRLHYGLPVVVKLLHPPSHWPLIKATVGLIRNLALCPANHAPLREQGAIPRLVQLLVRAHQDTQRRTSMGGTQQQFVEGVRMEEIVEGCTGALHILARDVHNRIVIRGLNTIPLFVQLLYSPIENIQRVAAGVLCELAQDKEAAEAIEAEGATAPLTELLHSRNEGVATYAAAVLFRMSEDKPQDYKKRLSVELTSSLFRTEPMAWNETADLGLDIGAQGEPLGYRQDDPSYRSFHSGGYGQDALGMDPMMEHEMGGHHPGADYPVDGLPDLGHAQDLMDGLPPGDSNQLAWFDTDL
- Experimental details: Competition fluorescence polarization assay (Axin site probe)
- Assay type: binding
- Condition: competition with FITC labeled Axin-site probe, 15 nM full-length beta-catenin; read-out: FP EC50
EC50 for assorted compounds

| Compound | EC50 |
| --- | --- |
| CC[C@H](C)[C@@H]1NC(=O)[C@@]2(NC(=O)[C@H](CCC(N)=O)NC(=O)[C@@H]3CCCN3C(C)=O)CCN(CC=CCCC[C@](C)(C(=O)N[C@@H](Cc3c[nH]cn3)C(=O)N[C@H](C(=O)N[C@@H](CCCNC(=N)N)C(=O)N[C@@H](CCCNC(=N)N)C(=O)N[C@H](C(=O)N[C@@H](Cc3c[nH]c4ccccc34)C(=O)N[C@@H](CCCNC(=N)N)C(N)=O)C(C)C)C(C)C)NC(=O)[C@H](CC(=O)O)NC(=O)[C@H](CC(C)C)NC1=O)C2 (single isomer, unassigned) | > 5 µM |

Query: # EC50 lookup, item CC[C@H](C)[C@@H]1NC(=O)[C@@](C)(NC(=O)[C@H](CCC(N)=O)NC(=O)[C@@H]2CCCN2C(C)=O)CCCC=CCN2CC(C(=O)N[C@@H](Cc3c[nH]cn3)C(=O)N[C@H](C(=O)N[C@@H](CCCNC(=N)N)C(=O)N[C@@H](CCCNC(=N)N)C(=O)N[C@H](C(=O)N[C@@H](Cc3c[nH]c4ccccc34)C(=O)N[C@@H](CCCNC(=N)N)C(N)=O)C(C)C)C(C)C)(C2)NC(=O)[C@H](CC(=O)O)NC(=O)[C@H](CC(C)C)NC1=O (single isomer, unassigned)
Response: > 5 µM
